System: human Factor XI mRNA
Assay: Dose-dependent inhibition in HepG2 cells, electroporation (Example 4)
Format: cell-based
Details: 2.2 μM, 16 hours
In the oligonucleotide strings, read from the 5' end, every base follows the letter of its sugar. An asterisk marks phosphorothioate; unmarked linkages are phosphodiester. Other units and linkages are bracketed, terminal groups are in braces. A string of capitals states the bases alone. e = 2'-O-(2-methoxyethyl) (MOE); [5mC] = 5-methylcytosine; d = 2'-deoxy (DNA)
Record Criterion met whenever percent inhibition of Factor XI mRNA, relative to untreated control cells is at 50% or higher; record Criterion not met when lower.

Worked examples, 4 substances total:
416826 (antisense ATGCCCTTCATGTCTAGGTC; 5-10-5 gapmer, wing sugar chemistry not given here, further chemistry not given here) [compound 416826] | Criterion not met
416993 (antisense e[5mC]*eT*dT*dT*dG*dA*dG*dA*dT*dT*d[5mC]*dT*dT*dT*dG*eG*eG*e[5mC]*e[5mC]*eA) [compound 416993] | Criterion not met
416827 (antisense eT*eA*eT*eG*e[5mC]*d[5mC]*d[5mC]*dT*dT*d[5mC]*dA*dT*dG*dT*d[5mC]*eT*eA*eG*eG*eT) [compound 416827] | Criterion met
416924 (antisense eG*eT*eG*d[5mC]*dA*d[5mC]*dA*dG*dT*dT*dT*d[5mC]*dT*dG*dG*d[5mC]*dA*eG*eG*e[5mC]) [compound 416924] | Criterion not met

Proceed to the following item.
Q: In plain terms: is recorded percent inhibition of Factor XI mRNA, relative to untreated control cells at least 50% for 416989 (antisense eG*eA*dG*dA*dT*dT*d[5mC]*dT*dT*dT*dG*dG*dG*d[5mC]*d[5mC]*eA*eT*eT*e[5mC]*e[5mC]) [compound 416989] ?
Result: Criterion met

---

Experiment: Tolerability in CD1 mice: hematology assays (Example 21)
Assay type: in vivo
Conditions: 50 mg/kg s.c. twice per week for 6 weeks
What Platelets was measured for each of the following?

Here's what some known entries look like.
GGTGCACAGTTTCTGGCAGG (all C 5-methyl, all phosphorothioate, sugars by position not given here; MOE gapmer) [ISIS 413481, 5-10-5 MOE gapmer] | 841 10^3/μL
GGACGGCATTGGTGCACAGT (antisense; all C 5-methyl, all phosphorothioate, sugars by position not given here; MOE gapmer, 5-10-5) [ISIS 413482, 5-10-5 MOE gapmer] | 818 10^3/μL
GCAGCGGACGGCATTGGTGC (antisense; all C 5-methyl, all phosphorothioate, sugars by position not given here; MOE gapmer, 5-10-5) [ISIS 412225, 5-10-5 MOE gapmer] | 574 10^3/μL
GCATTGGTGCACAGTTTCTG (antisense; all C 5-methyl, all phosphorothioate, sugars by position not given here; MOE gapmer, 5-10-5) [ISIS 412224, 5-10-5 MOE gapmer] | 647 10^3/μL

As a next step, examine the sequence that follows.
// Platelets lookup, sequence = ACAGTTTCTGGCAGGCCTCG (antisense; all C 5-methyl, all phosphorothioate, sugars by position not given here; MOE gapmer, 5-10-5) [ISIS 412223, 5-10-5 MOE gapmer] , result: 862 10^3/μL

---

Tested on: human Factor XI mRNA
Assay: Dose-dependent inhibition and IC50 in HepG2 cells, microwalk gapmers, electroporation (Example 16)
Assay type: cell-based
Details: electroporation, 3,000 nM
In the oligonucleotide strings, read from the 5' end, every base follows the letter of its sugar. An asterisk marks phosphorothioate; unmarked linkages are phosphodiester. Other units and linkages are bracketed, terminal groups are in braces. A string of capitals states the bases alone. e = 2'-O-(2-methoxyethyl) (MOE); [5mC] = 5-methylcytosine; d = 2'-deoxy (DNA)
TEST_READOUT: percent inhibition of Factor XI mRNA (%)
Give bare numbers, in %.

Some solved entries appear below for comparison.
449711 (antisense eA*e[5mC]*dA*dG*dT*dT*dT*d[5mC]*dT*dG*dG*d[5mC]*eA*eG) [compound 449711] | 7
449707 (antisense e[5mC]*eA*e[5mC]*eA*dG*dT*dT*dT*d[5mC]*dT*dG*dG*e[5mC]*eA*eG*eG) [compound 449707] | 73

For each of the substances below, state percent inhibition of Factor XI mRNA.
1. 416850 (antisense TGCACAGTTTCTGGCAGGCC; 5-10-5 gapmer, wing sugar chemistry not given here, further chemistry not given here) [compound 416850]
2. 449709 (antisense eG*e[5mC]*eA*e[5mC]*dA*dG*dT*dT*dT*d[5mC]*dT*dG*dG*d[5mC]*eA*eG*eG*e[5mC]) [compound 449709]
3. 416858 (antisense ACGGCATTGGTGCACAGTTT; 5-10-5 gapmer, wing sugar chemistry not given here, further chemistry not given here) [compound 416858]
4. 445531 (antisense eG*eG*e[5mC]*eA*eT*dT*dG*dG*dT*dG*d[5mC]*dA*d[5mC]*eA*eG*eT*eT*eT) [compound 445531]
5. 449710 (antisense e[5mC]*eA*e[5mC]*dA*dG*dT*dT*dT*d[5mC]*dT*dG*dG*d[5mC]*eA*eG*eG) [compound 449710]
6. 449708 (antisense eA*e[5mC]*eA*dG*dT*dT*dT*d[5mC]*dT*dG*dG*e[5mC]*eA*eG) [compound 449708]
7. 445522 (antisense eG*e[5mC]*eA*e[5mC]*eA*dG*dT*dT*dT*d[5mC]*dT*dG*dG*e[5mC]*eA*eG*eG*e[5mC]) [compound 445522]

Result:
1: 87; 2: 87; 3: 85; 4: 86; 5: 70; 6: 33; 7: 82
